test system: BDF1 mice, B16 melanoma ip, median survival T/C; assay: NCI In Vivo Anticancer Drug Screen. Data for tumor model B16 Melanoma (intraperitoneal) in B6D2F1 (BDF1) mice; settings: endpoint: median survival time; dose: 0.25 mg/kg/injection; schedule: Q01DX009 (ip); vehicle: saline; higher = longer survival
Inconclusive results and toxic doses are left out.
endpoint label: T/C

Known T/C results, listed for orientation:
[[record]]
compound = "CN(C)C1=C(N2CC2)C(=O)C(N(C)C)=C(N2CC2)C1=O"
recorded_value = "112 % of control"

[[record]]
compound = "O=C1OC(C(O)CO)C(O)=C1O (stereo unspecified)"
recorded_value = "110 % of control"


Short answer for OCCN1CCN(CC/C=C2/c3ccccc3Sc3ccc(C(F)(F)F)cc32)CC1 : T/C was 97 % of control

Short answer for CCCCCCCCCCCCCCCC(=O)O[C@@]12C[C@@H](C)[C@@]3(O)[C@@H](C=C(CO)C[C@]4(O)C(=O)C(C)=C[C@@H]34)[C@@H]1C2(C)C : T/C was 92 % of control

Short answer for COc1cc([C@@H]2c3cc4c(c(O)c3C[C@H]3COC(=O)[C@@H]32)OCO4)cc(OC)c1O : T/C was 97 % of control

Short answer for NC(=O)c1cn(C2OC(CO)C(O)C2O)c2ncnc(N)c12 (stereo unspecified) : T/C was 102 % of control

====

test system: BDF1 mice, B16 melanoma ip, median survival T/C; assay: NCI In Vivo Anticancer Drug Screen. Data for tumor model B16 Melanoma (intraperitoneal) in B6D2F1 (BDF1) mice; settings: endpoint: median survival time; dose: 100.0 mg/kg/injection; schedule: Q04DX003 (ip); vehicle: Klucel (hydroxypropylcellulose) (HPC); higher = longer survival
Toxic doses and inconclusive results are not listed.
endpoint label: T/C

Known T/C results, listed for orientation:
[[record]]
molecule = "CCN(CC)C(N)=S"
target_of_assay = "BDF1 mice, B16 melanoma ip, median survival T/C"
endpoint_label = "T/C"
recorded_value = "102 % of control"

[[record]]
molecule = "O=C(/C=C/C(=O)Oc1c(Cl)cc(Cl)cc1Cl)Oc1c(Cl)cc(Cl)cc1Cl"
target_of_assay = "BDF1 mice, B16 melanoma ip, median survival T/C"
endpoint_label = "T/C"
recorded_value = "95 % of control"

[[record]]
molecule = "O=C(/C=C/c1ccncc1)c1ccccc1"
target_of_assay = "BDF1 mice, B16 melanoma ip, median survival T/C"
endpoint_label = "T/C"
recorded_value = "99 % of control"

[[record]]
molecule = "Cc1ccc(S(=O)(=O)N(CCCCN(S(=O)(=O)c2ccc(C)cc2)S(=O)(=O)c2ccc(C)cc2)S(=O)(=O)c2ccc(C)cc2)cc1"
target_of_assay = "BDF1 mice, B16 melanoma ip, median survival T/C"
endpoint_label = "T/C"
recorded_value = "95 % of control"

[[record]]
molecule = "CCNC(=O)Nc1ccc(C)cc1C"
target_of_assay = "BDF1 mice, B16 melanoma ip, median survival T/C"
endpoint_label = "T/C"
recorded_value = "106 % of control"

[[record]]
molecule = "COc1ccc2c(c1)CN(S(=O)(=O)c1ccc(C)cc1)CCC2O (stereo unspecified)"
target_of_assay = "BDF1 mice, B16 melanoma ip, median survival T/C"
endpoint_label = "T/C"
recorded_value = "96 % of control"

[[record]]
molecule = "CCOC(=O)/C(=C\\c1ccccc1)P(=O)(OCC)c1ccccc1 (stereo unspecified)"
target_of_assay = "BDF1 mice, B16 melanoma ip, median survival T/C"
endpoint_label = "T/C"
recorded_value = "94 % of control"

[[record]]
molecule = "C[N+]1=CN(c2ccc(Cl)cc2)Cc2cc(Cl)ccc21"
target_of_assay = "BDF1 mice, B16 melanoma ip, median survival T/C"
endpoint_label = "T/C"
recorded_value = "88 % of control"

[[record]]
molecule = "Cc1cc(NS(=O)(=O)c2ccc(N)cc2)no1"
target_of_assay = "BDF1 mice, B16 melanoma ip, median survival T/C"
endpoint_label = "T/C"
recorded_value = "97 % of control"

[[record]]
molecule = "Cc1ccc(NC(=O)c2cccc(C(=O)Nc3ccc(C)c(C)c3)c2)cc1C"
target_of_assay = "BDF1 mice, B16 melanoma ip, median survival T/C"
endpoint_label = "T/C"
recorded_value = "97 % of control"


Value sought: T/C, system BDF1 mice, B16 melanoma ip, median survival T/C, item O=C1Cc2cccc3c2C(C1)CN3C(=O)c1ccccc1 (stereo unspecified) . Result: 101 % of control
